Molecular target: AMP-activated protein kinase, AMPK (Homo sapiens) (UniProt P54646+O43741+P54619+Q9UGJ0+Q9Y478+Q13131+Q9UGI9)
Assay: AMP-dependent Kinase enzyme assay. An in vitro enzyme assay that detects ADP turnover that is directly proportional to AMPK activity. This uses naive AMPK that is activated during the assay with MK-8722
Format: functional
Design: scale not given: direction of the effect not stated beside the values
Conditions: 30 µM
I'd be grateful if you could share measured Percent Effect for these entries.
Only the number, expressed in %, is required.

## Input Given CN(C)c1cc(CNC(=O)c2ccc(=O)[nH]n2)ccn1 , state its recorded Percent Effect.
## Output -1.88

## Input Sample Cc1cc(CN2CCN(C(=O)Nc3cccnc3)CC2)on1 — what was its Percent Effect?
## Output -3.05

## Input I would be grateful if you could share the reported Percent Effect for Cc1noc(Cl)c1CCC(=O)N1CCCCC1Cn1cccn1 (centres undefined) .
## Output 1.98

## Input Item Cn1c(C(F)(F)F)nn(CCNC(=O)c2cnc3ccccc3n2)c1=O has what recorded Percent Effect?
## Output 4.14

* * *

Target: Ubiquitin-activating enzyme e1, putative (Leishmania donovani (strain BPK282A1)) (UniProt E9BSI1)
Sequence (whole entry): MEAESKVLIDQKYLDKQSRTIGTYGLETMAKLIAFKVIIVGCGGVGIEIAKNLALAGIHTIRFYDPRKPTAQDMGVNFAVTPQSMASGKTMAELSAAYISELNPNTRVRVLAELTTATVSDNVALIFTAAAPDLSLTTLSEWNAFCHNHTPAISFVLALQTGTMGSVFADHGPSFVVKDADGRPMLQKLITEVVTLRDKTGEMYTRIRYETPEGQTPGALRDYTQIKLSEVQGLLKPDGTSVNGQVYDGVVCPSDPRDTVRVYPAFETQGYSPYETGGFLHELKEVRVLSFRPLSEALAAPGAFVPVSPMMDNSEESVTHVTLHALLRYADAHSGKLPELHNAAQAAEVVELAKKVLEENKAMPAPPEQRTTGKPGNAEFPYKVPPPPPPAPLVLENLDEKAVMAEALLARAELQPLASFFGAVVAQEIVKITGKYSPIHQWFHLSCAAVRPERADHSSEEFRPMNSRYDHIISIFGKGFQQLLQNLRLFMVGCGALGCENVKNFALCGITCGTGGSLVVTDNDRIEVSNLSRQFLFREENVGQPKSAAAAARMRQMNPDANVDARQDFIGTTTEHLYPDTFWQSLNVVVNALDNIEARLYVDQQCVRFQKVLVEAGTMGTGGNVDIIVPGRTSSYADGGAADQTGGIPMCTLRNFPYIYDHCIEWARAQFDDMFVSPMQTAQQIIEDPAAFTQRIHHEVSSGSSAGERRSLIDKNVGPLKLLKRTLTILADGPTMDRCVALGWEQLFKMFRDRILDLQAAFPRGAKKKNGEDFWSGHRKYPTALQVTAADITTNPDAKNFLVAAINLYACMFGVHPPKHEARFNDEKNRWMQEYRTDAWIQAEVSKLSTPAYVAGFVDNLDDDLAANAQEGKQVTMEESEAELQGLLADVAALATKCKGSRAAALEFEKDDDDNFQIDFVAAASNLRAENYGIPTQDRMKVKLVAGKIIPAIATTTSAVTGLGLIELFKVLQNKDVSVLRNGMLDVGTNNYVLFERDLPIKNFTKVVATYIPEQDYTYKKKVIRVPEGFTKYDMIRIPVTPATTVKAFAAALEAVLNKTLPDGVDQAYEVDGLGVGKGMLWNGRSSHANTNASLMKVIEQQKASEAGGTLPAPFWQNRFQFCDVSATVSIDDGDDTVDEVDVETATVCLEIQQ
Assay: Leishmania donovani Ubiquitin Activating Enzyme (LdE1)
Format: functional
Design: scale not given: direction of the effect not stated beside the values
Conditions: 30 µM
Results with a measured potency or affinity are listed apart.
Give Percent Effect for every item shown.
# output: bare number, implied unit %

## Input So what's the measured Percent Effect for this one? O=C(NCC(F)(F)F)C1CSCN1S(=O)(=O)c1ccc(F)cc1 (stereo unspecified)
## Output 16.5

## Input Fill in the blank: the reported Percent Effect of NC(=O)c1cc(C2CCCN(C(=O)CCc3cscn3)C2)n[nH]1 (stereo unspecified) is ____.
## Output 0

## Input Any idea what its Percent Effect is? The compound is CN(CCO)Cc1nnc(C2CCN(C(=O)C(C)(C)C)CC2)n1C
## Output 5.33

## Input Which value of Percent Effect has been reported for CCCc1n[nH]c(C2CN(CCCOc3ccccc3)CCO2)n1 (stereo unspecified) in the records?
## Output 1.27

## Input Record request: Percent Effect value, item O=C(c1ccsc1)N1C[C@@H]2C[C@@H](c3nnc(C4CC4)o3)O[C@@H]2C1
## Output 7.79

## Input Fill blank: measured Percent Effect of the compound COc1cc(C)sc1C(=O)N1CCC(Nc2cccnc2)CC1 is ____.
## Output -121

## Input Suppose we examine the compound COc1cc(N2CC[C@H](O)[C@@H]2Cc2cnn(C)c2)ncn1 ; what Percent Effect value has been reported?
## Output 10.8

## Input Would you mind telling me what Percent Effect value was observed for CC(=O)Nc1nc(C(=O)N2CCCC2c2noc(C)n2)cs1 (stereo unspecified) ?
## Output -5.2

## Input GET /values?readout=Percent Effect&item= Cc1nc(CN2CCCC(NCCc3ccccc3Cl)C2)no1 (stereo unspecified)
## Output 7.59

## Input // query Percent Effect value for entry CCc1nc(CN2CCCN(c3ncnc4ccccc34)CC2)no1
## Output 13

## Input Query: Percent Effect; subject: O=C(Cn1nc(-c2ccc(F)cc2)oc1=O)NCc1ccc(F)cc1
## Output 10.5

## Input Endpoint output: Percent Effect of CC(C)NC(=O)c1ccc2c(c1)nc1n2CCN(C(C)C)C1 . Value?
## Output 4

## Input Could you share which Percent Effect value was measured for O=C(CCCc1ccc(F)cc1)N1C[C@@H](CN2CCOCC2)[C@@H](CO)C1 ?
## Output 8.22

## Input If you can, please state the reported Percent Effect value of CCC(=O)N1CCN(Cc2cc(-c3ccncc3)nn2C)CC1 .
## Output -6.76

## Input Sample CCc1ccc(S(=O)(=O)Nc2cc(OC)c(OC)cc2C(=O)O)s1 — what was its Percent Effect?
## Output 13.2

## Input # Percent Effect lookup, item COCCN1C[C@@H]2CCCO[C@@H]2[C@H](NC(=O)c2cnccn2)C1
## Output 8

## Input Return reported Percent Effect; argument: Cc1cc(CN2CC[C@H]3C(=O)N(c4ccccc4)CCO[C@H]3C2)no1
## Output 21.3

## Input Endpoint output: Percent Effect of CCCc1n[nH]c(C2CN(C(=O)c3cc(F)ccc3OC)CCO2)n1 (stereo unspecified) . Value?
## Output 7.89

## Input # get_value(readout='Percent Effect', item= Cc1ccc2cc(CNCCCO)c(=O)[nH]c2c1 )
## Output 9.46

## Input Quick one: Percent Effect of Cc1cc(CN(C)C(=O)c2cccc(N3CCCC3=O)c2)no1 ?
## Output 20.2

## Input Suppose we examine the compound Cc1nc(CN2CCCN(C(=O)C(C)OCC3CC3)CC2)cs1 (stereo unspecified) ; what Percent Effect value has been reported?
## Output 3.8
